The reported numbers originate from patent US20210155689A1.

Listed binders paired with reported Mean fluorescence intensity
ASSAYED TARGET: T1, monkey LAG-3 (full length, on the cell surface) (monkey, UniProt P18627 24-525 (human entry))
T1 construct: also called HEK293-cLAG-3; monkey LAG-3 protein on the cell surface
T1 chain: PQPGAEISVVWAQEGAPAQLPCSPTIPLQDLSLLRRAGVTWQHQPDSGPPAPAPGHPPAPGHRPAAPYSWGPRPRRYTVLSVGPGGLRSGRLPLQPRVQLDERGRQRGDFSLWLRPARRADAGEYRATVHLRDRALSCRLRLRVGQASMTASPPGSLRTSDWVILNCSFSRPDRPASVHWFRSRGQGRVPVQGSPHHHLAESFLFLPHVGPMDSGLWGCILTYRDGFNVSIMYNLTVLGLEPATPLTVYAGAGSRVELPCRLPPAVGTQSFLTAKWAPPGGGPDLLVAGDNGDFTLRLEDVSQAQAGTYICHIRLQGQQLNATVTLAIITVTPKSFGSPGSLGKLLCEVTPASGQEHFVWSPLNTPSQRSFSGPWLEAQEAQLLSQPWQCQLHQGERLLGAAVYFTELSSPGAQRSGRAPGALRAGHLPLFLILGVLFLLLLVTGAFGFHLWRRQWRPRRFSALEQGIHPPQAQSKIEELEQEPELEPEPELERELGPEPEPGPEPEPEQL
ASSAY DETAILS: FACS, HEK293-cLAG-3; 0.000 nM
Give just the number in MFI; leave the unit off.

- 556F6B8 (mouse antibody purified from hybridoma) (antibody, V domains shown, also called mAb123-556F6B8) VH: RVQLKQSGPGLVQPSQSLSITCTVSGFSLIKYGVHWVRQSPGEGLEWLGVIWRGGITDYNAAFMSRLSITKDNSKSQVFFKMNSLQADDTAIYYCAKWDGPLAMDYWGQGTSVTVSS VL: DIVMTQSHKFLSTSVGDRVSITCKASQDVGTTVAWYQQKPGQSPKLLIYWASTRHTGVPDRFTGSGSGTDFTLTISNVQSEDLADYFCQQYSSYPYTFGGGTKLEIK: 3.4
- 409D4E10 (mouse antibody purified from hybridoma) (antibody, V domains shown, also called mAb112-409D4E10) VH: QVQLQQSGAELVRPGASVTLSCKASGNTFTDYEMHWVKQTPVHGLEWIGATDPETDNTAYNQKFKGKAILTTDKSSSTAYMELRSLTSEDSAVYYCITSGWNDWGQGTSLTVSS VL: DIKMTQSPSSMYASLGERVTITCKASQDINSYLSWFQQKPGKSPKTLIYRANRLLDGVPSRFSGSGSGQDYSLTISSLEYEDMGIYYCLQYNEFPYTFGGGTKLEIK: 3
- 105F1E10 (mouse antibody purified from hybridoma) (antibody, V domains shown, also called mAb009-105F1E10) VH: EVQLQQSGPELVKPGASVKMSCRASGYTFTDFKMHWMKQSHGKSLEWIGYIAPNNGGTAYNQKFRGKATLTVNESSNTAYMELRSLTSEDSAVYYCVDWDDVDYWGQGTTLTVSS VL: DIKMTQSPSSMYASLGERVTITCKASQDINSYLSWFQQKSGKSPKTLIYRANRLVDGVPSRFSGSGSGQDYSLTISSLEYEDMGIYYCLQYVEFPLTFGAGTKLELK: 3.9
- 405B8H3 (mouse antibody purified from hybridoma) (antibody, V domains shown, also called mAb103-405B8H3; 405B81-13) VH: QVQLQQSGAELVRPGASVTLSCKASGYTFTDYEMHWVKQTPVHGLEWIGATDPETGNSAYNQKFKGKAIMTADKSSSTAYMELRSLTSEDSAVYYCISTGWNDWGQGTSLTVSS VL: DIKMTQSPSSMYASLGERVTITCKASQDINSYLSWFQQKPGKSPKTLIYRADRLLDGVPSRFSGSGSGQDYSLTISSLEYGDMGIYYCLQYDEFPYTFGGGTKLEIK: 3.9

Can you look up the measured Mean fluorescence intensity of 409B11E12 (mouse antibody purified from hybridoma) (antibody, V domains shown, also called mAb104-409B11E12) VH: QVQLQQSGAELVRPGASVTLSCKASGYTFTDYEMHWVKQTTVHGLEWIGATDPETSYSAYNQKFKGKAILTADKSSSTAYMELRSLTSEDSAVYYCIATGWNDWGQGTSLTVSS VL: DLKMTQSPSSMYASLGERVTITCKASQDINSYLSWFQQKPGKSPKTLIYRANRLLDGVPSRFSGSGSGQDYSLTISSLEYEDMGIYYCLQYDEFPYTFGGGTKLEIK for me?
3
